Listing of recorded survival rate by entry.
test system: SW620E cells (etoposide-resistant); experiment: Neutral red uptake viability assay, SW620E; format: cell-based, human; conditions: 10 μM, 72 h, n = 3, ± SD
# unit: % | format: bare number

1. O=C1N/C(=C\c2ccccc2-[c-]2cccc2)C(=O)N2CCC[C@@H]12.[Fe+2].c1cc[cH-]c1 [(S,Z)-4b]    99

Which value of survival rate has been reported for O=C1N/C(=C/c2ccccc2)C(=O)N2CCC[C@@H]12 [(S,E)-4e] in the records?
99

###

test system: SW620C cells (cisplatin-resistant); assay: Neutral red uptake viability assay, SW620C; type: cell-based, human; conditions: SW620C, 1 μM, 72 h, n = 3, ± SD
Reported survival rate by item:
Reply numerically in %, unit not repeated.

# count of solved cases: 5
1. O=C1N/C(=C\c2ccccc2)C(=O)N2CCC[C@@H]12 [(S,Z)-4e]    95
2. O=C1N/C(=C/c2ccccc2)C(=O)N2CCC[C@@H]12 [(S,E)-4e]    96
3. O=C1N/C(=C\c2ccccc2-[c-]2cccc2)C(=O)N2CCC[C@@H]12.[Fe+2].c1cc[cH-]c1 [(S,Z)-4b]    83
4. O=C1N/C(=C\c2ccc(-[c-]3cccc3)cc2)C(=O)N2CCC[C@@H]12.[Fe+2].c1cc[cH-]c1 [(S,Z)-4d]    96
5. O=C1N/C(=C/c2cccc(-[c-]3cccc3)c2)C(=O)N2CCC[C@@H]12.[Fe+2].c1cc[cH-]c1 [(S,E)-4c]    84

# context switch: different compound, same survival rate
// returns reported survival rate for input O=C1N/C(=C\[c-]2cccc2)C(=O)N2CCC[C@@H]12.[Fe+2].c1cc[cH-]c1 [(S,Z)-4a]
78
